# tgt: hCA I (Homo sapiens)
# Construct: gene CA1; recombinant, obtained in-house
# Sequence (P00915 2-261): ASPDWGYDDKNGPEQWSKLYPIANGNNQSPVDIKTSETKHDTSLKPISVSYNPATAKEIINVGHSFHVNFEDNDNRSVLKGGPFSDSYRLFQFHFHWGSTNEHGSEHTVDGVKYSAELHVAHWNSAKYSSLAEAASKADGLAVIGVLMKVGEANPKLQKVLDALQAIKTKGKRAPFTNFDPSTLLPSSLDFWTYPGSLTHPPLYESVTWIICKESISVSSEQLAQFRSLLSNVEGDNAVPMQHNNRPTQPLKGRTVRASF
# measurementProtocol: stopped-flow CO2 hydrase assay
# Type: biochemical
# Text: stopped-flow CO2 hydrase assay on hCA I
parameterMeasured: Ki (nM)
Numeric answer only, unit nM assumed.

NS(=O)(=O)c1ccc(CCn2c(SCCCN3C(=O)c4ccccc4C3=O)nc3ccccc3c2=O)cc1 :: 321

Entry NS(=O)(=O)c1ccc(CCn2c(SCCN3CCCCC3)nc3ccccc3c2=O)cc1 — recorded Ki = 532

* * *

# tgt: hCA IX (Homo sapiens, UniProt Q16790)
# Construct: gene CA9; recombinant, obtained in-house
# measurementProtocol: stopped-flow CO2 hydrase assay
# Assay type: biochemical
Here, each record is paired with measured Ki data.
# number only, unit nM dropped from output

Past entries and their recorded results:
N#Cc1ccc(CSc2nc3ccccc3c(=O)n2CCc2ccc(S(N)(=O)=O)cc2)cc1 :: 47.3
CCSc1nc2ccccc2c(=O)n1CCc1ccc(S(N)(=O)=O)cc1 :: 7.1

Looking up NS(=O)(=O)c1ccc(CCn2c(SCc3ccccc3)nc3ccccc3c2=O)cc1 , I see its Ki listed as 50.7

* * *

# tgt: hCA XII (Homo sapiens, UniProt O43570)
# Construct: gene CA12; recombinant, obtained in-house
# Sequence (O43570 25-354): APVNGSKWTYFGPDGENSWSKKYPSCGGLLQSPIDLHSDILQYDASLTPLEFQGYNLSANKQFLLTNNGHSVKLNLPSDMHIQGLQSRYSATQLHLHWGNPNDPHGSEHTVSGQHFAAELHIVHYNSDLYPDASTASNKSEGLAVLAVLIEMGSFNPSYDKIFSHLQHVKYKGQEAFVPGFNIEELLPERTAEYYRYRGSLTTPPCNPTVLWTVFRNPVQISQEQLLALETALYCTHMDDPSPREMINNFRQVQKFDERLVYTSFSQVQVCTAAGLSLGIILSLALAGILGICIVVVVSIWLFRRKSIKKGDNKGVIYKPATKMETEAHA
# measurementProtocol: stopped-flow CO2 hydrase assay
# Assay type: biochemical
parameterMeasured: log10(Ki) (log10 of the value in nM)
For clarity, the numbers are log10 values of Ki expressed in nM.

The examples below pair each entry with its known result.
CCSc1nc2ccccc2c(=O)n1CCc1ccc(S(N)(=O)=O)cc1 [compound 3] :: 0.59
NS(=O)(=O)c1ccc(CCn2c(SCc3ccccc3)nc3ccccc3c2=O)cc1 [compound 5] :: 1.58
NS(=O)(=O)c1ccc(CCn2c(SCc3ccc(Br)cc3)nc3ccccc3c2=O)cc1 [compound 6] :: 1.76

Entry N#CCSc1nc2ccccc2c(=O)n1CCc1ccc(S(N)(=O)=O)cc1 [compound 4] ; assay system hCA XII (Homo sapiens, UniProt O43570); log10(Ki) recorded at 0.93

The compound N#Cc1ccc(CSc2nc3ccccc3c(=O)n2CCc2ccc(S(N)(=O)=O)cc2)cc1 [compound 8] , tested on hCA XII (Homo sapiens, UniProt O43570), showed log10(Ki) of 1.25

Item NS(=O)(=O)c1ccc(CCn2c(SCCN3CCCCC3)nc3ccccc3c2=O)cc1 [compound 12] was tested on hCA XII (Homo sapiens, UniProt O43570); the reported log10(Ki) is 1.31

Sample NS(=O)(=O)c1ccc(CCn2c(SCc3ccc([N+](=O)[O-])cc3)nc3ccccc3c2=O)cc1 [compound 11] , system: hCA XII (Homo sapiens, UniProt O43570). Its log10(Ki) is 1.41

* * *

# tgt: hCA IX (Homo sapiens)
# Construct: gene CA9; recombinant, obtained in-house
# measurementProtocol: stopped-flow CO2 hydrase assay
# Assay type: biochemical
parameterMeasured: Ki
# include the unit after the value

NS(=O)(=O)c1ccc(CCn2c(SCc3ccc(Cl)cc3)nc3ccccc3c2=O)cc1 :: 34.2 nM
N#CCSc1nc2ccccc2c(=O)n1CCc1ccc(S(N)(=O)=O)cc1 :: 12.6 nM

The compound identified as Cc1ccc(CSc2nc3ccccc3c(=O)n2CCc2ccc(S(N)(=O)=O)cc2)cc1 registered its Ki at 57.1 nM

// Ki lookup, compound = NS(=O)(=O)c1ccc(CCn2c(SCCCN3C(=O)c4ccccc4C3=O)nc3ccccc3c2=O)cc1 , result: 93.6 nM

Ki for CSc1nc2ccccc2c(=O)n1CCc1ccc(S(N)(=O)=O)cc1 is 9.5 nM

// Ki value for NS(=O)(=O)c1ccc(CCn2c(SCCN3CCCCC3)nc3ccccc3c2=O)cc1 : 22.4 nM

The compound NS(=O)(=O)c1ccc(CCn2c(SCc3ccc(Br)cc3)nc3ccccc3c2=O)cc1 showed Ki equal to 64.1 nM

// sample NS(=O)(=O)c1ccc(CCn2c(SCc3ccc(F)cc3)nc3ccccc3c2=O)cc1 , its Ki was 28.9 nM

* * *

Form field: Ki (one value per entry).
# tgt: hCA XII (Homo sapiens, UniProt O43570)
# Construct: gene CA12; recombinant, obtained in-house
# measurementProtocol: stopped-flow CO2 hydrase assay
# Assay type: biochemical
The response must be a number in nM with no trailing unit.

Cc1ccc(CSc2nc3ccccc3c(=O)n2CCc2ccc(S(N)(=O)=O)cc2)cc1 :: 28.2
NS(=O)(=O)c1ccc(CCn2c(SCc3ccc(Cl)cc3)nc3ccccc3c2=O)cc1 :: 65.6

Ki reported for this compound CSc1nc2ccccc2c(=O)n1CCc1ccc(S(N)(=O)=O)cc1 : 3.1

Data point: NS(=O)(=O)c1ccc(CCn2c(SCCCN3C(=O)c4ccccc4C3=O)nc3ccccc3c2=O)cc1 ; Ki = 71.4
